Would you kindly list IC50 for each of these compounds?
- Test protocol: Cytotoxicity against mouse macrophage cell line J774.1 (ATCC TIB-67) for 3 days by Alamar Blue
- Type: cell-based
- Test context: 72 h
Hi! Could you send only the number? It should be in µM, unit omitted.

Ask: Fill in: IC50 of O=C(Nc1cc(C(F)(F)F)ccc1F)c1cc(F)ccc1O is ___
Result: 5.1

Ask: Fill in: IC50 of O=C(Nc1cc(C(F)(F)F)ccc1Cl)c1cc(Cl)ccc1O is ___
Result: 3.5

Ask: Fill in: IC50 of O=C(Nc1ccc(F)c(F)c1)c1cc(Cl)ccc1O is ___
Result: 7.7

Ask: Fill in: IC50 of O=C(Nc1cc([N+](=O)[O-])ccc1F)c1cc(Cl)ccc1O is ___
Result: 8.5

Ask: Fill in: IC50 of O=C(Nc1ccc(Br)cc1C(F)(F)F)c1cc(Cl)ccc1O is ___
Result: 11

Ask: Fill in: IC50 of COc1cc(NC(=O)c2cc(Cl)ccc2O)cc(C(F)(F)F)c1 is ___
Result: 18

Ask: Fill in: IC50 of O=C(Nc1ccc(Oc2ccccc2)cc1)c1cc(Cl)ccc1O is ___
Result: 43

Ask: Fill in: IC50 of O=C(Nc1cc(Cl)cc(Cl)c1)c1cc(Cl)ccc1O is ___
Result: 3.1

Ask: Fill in: IC50 of O=C(Nc1cc(F)ccc1Cl)c1cc(Cl)ccc1O is ___
Result: 3.2

Ask: Fill in: IC50 of O=C(Nc1cc(C(F)(F)F)cc(C(F)(F)F)c1)c1cc(Br)ccc1O is ___
Result: 4.9

Ask: Fill in: IC50 of O=C(Nc1cc(F)cc(F)c1)c1cc(Cl)ccc1O is ___
Result: 6.1

Ask: Fill in: IC50 of O=C(Nc1cc(C(F)(F)F)cc(C(F)(F)F)c1)c1cc(F)ccc1O is ___
Result: 2.5

Ask: Fill in: IC50 of COc1cc(NC(=O)c2cc(Cl)ccc2O)c(Cl)cc1Cl is ___
Result: 8

Ask: Fill in: IC50 of O=C(Nc1cccc(C(F)(F)F)c1C(F)(F)F)c1cc(Cl)ccc1O is ___
Result: 8.1

Ask: Fill in: IC50 of O=C(Nc1ccccc1C(F)(F)F)c1cc(Cl)ccc1O is ___
Result: 19

Ask: Fill in: IC50 of O=C(Nc1cc(C(F)(F)F)cc(C(F)(F)F)c1)c1cc(Cl)ccc1O [IMD-0354] is ___
Result: 5.2

Ask: Fill in: IC50 of O=C(Nc1cc(C(F)(F)F)ccc1Cl)c1cc(F)ccc1O is ___
Result: 6.1

Ask: Fill in: IC50 of Cc1cc(C)cc(NC(=O)c2cc(Cl)ccc2O)c1 is ___
Result: 21

Ask: Fill in: IC50 of O=C(Nc1c(Cl)cccc1C(F)(F)F)c1cc(Cl)ccc1O is ___
Result: 23

Ask: Fill in: IC50 of O=C(Nc1ccc(F)c(C(F)(F)F)c1)c1cc(Cl)ccc1O is ___
Result: 5.3

Ask: Fill in: IC50 of O=C(Nc1cc(C(F)(F)F)cc(C(F)(F)F)c1)c1ccccc1O is ___
Result: 12

Ask: Fill in: IC50 of O=C(Nc1cc(Cl)c(Cl)c(Cl)c1)c1cc(Cl)ccc1O is ___
Result: 5.4

Ask: Fill in: IC50 of O=S(=O)(Nc1cc(C(F)(F)F)cc(C(F)(F)F)c1)c1cc(Cl)ccc1O is ___
Result: 23

Ask: Fill in: IC50 of O=C(Nc1cc(C(F)(F)F)cc(C(F)(F)F)c1)Nc1cc(Cl)ccc1O is ___
Result: 13

Ask: Fill in: IC50 of O=C(Nc1ccc(C(F)(F)F)cc1)c1cc(F)ccc1O is ___
Result: 5.4

Ask: Fill in: IC50 of O=C(Nc1ccc(C(F)(F)F)c(C(F)(F)F)c1)c1cc(Cl)ccc1O is ___
Result: 4.9

Ask: Fill in: IC50 of O=C(Nc1ccc(Br)c(C(F)(F)F)c1)c1cc(Cl)ccc1O is ___
Result: 4.5
